System: TGFBR1;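 further: KINOMEscan kinase panel screen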
condition-description: concentration: 1 μM, replicates: in singlicate; n = 1
Label rule, in plain words: %Inh of 5% and up is rule met, under 5% is rule not met.

Assess whether reported %Inh for O=S(=O)(c1ccc(-c2ccnc3[nH]ccc23)cc1)N1CCCC1 [GSK846226] sits at 5% or higher. rule not met

Assess whether reported %Inh for COc1ccccc1CNC(=O)c1cc(C(=O)c2ccccc2C)c[nH]1 [GSK364507] sits at 5% or higher. rule met

Assess whether reported %Inh for Cn1ccc2ncnc(Oc3ccc(NC(=O)Nc4ccccc4)cc3)c21 sits at 5% or higher. rule not met

Assess whether reported %Inh for COc1cc2ncnc(Nc3ccc4nc(-c5ccccc5)[nH]c4c3)c2cc1OC.Cl [GW282450] sits at 5% or higher. rule not met

Assess whether reported %Inh for CN(C)CCN(C)C(=O)c1cc(-c2ccncc2)c(-c2ccc(Cl)c(O)c2)o1.Cl.Cl [SB-710397] sits at 5% or higher. rule not met

Assess whether reported %Inh for Nc1ncnc2[nH]c(-c3ccccc3)nc12 [AH5015] sits at 5% or higher. rule met

Assess whether reported %Inh for O=C(O)COc1ncnc2cc(-c3ccc4[nH]ncc4c3)sc12 sits at 5% or higher. rule met

Assess whether reported %Inh for O=C(Nc1n[nH]c2nc(-c3nccs3)c(Br)cc12)C1CC1 [SB-742251] sits at 5% or higher. rule met

Assess whether reported %Inh for Fc1cc(Cl)ccc1Nc1ccnc2cc(-c3ccc(CN4CCCCC4)o3)ccc12 [GW560116] sits at 5% or higher. rule not met

Assess whether reported %Inh for CC(=O)Nc1nc2cnc(Nc3cc(NC(=O)c4cccc(CCC#N)c4)ccc3C)nc2s1 sits at 5% or higher. rule not met

Assess whether reported %Inh for CC(C)(C)c1ccc(C(=O)Nc2cn3cc(Cl)ccc3n2)cc1 sits at 5% or higher. rule not met

Assess whether reported %Inh for CCn1c(-c2cccnc2O)nc2cnccc21 [SB-736715] sits at 5% or higher. rule not met

Assess whether reported %Inh for Cc1c(O)cccc1Nc1ccnc2ccc(C(F)(F)F)cc12.Cl [GW466413] sits at 5% or higher. rule not met

Assess whether reported %Inh for Cl.Oc1ccc(-c2nc(-c3ccccc3)[nH]c2-c2ccncc2)cc1 [SB-428218] sits at 5% or higher. rule met

Assess whether reported %Inh for O=C1NC(=O)C(N2CCc3ccccc32)=C1c1ccccc1Cl [SB-373598] sits at 5% or higher. rule met

Assess whether reported %Inh for COc1cccc(NC(=O)NC2CCN(c3ccnc(Nc4ccc(F)cc4)n3)C2)c1 (stereo not drawn) [GSK1379721] sits at 5% or higher. rule met

Assess whether reported %Inh for Cc1cc(N2Cc3ccccc3C2)nc(Nc2ccc(S(=O)(=O)N3CCOCC3)cc2)n1.Cl [GSK1669917] sits at 5% or higher. rule not met

Assess whether reported %Inh for COC(=O)c1c(-c2ccccc2)c2cc(C(=O)O)ccc2c(=O)n1Cc1ccccc1 sits at 5% or higher. rule met

Assess whether reported %Inh for COc1ccccc1-c1ccc2c(NC(=O)C3CC3)n[nH]c2n1 [SB-711239] sits at 5% or higher. rule met

Assess whether reported %Inh for O=C(Nc1n[nH]c2cc(-c3cccc(F)c3F)ccc12)C1CC1 [SB-733894] sits at 5% or higher. rule not met

Assess whether reported %Inh for Cl.O=C(Nc1cccc(-c2nn3ncccc3c2-c2ccnc(Nc3cccnc3)n2)c1)c1c(F)cccc1F [GSK312879] sits at 5% or higher. rule not met

Assess whether reported %Inh for CCCc1ccc(S(=O)(=O)NC2CCN(c3ccnc(Nc4ccc(F)cc4)n3)C2)cc1 (stereo not drawn) [GSK1379715] sits at 5% or higher. rule not met

Assess whether reported %Inh for Cn1ccc2ncnc(Oc3cccc(C(=O)Nc4ccccc4)c3)c21 sits at 5% or higher. rule met

Assess whether reported %Inh for COc1ccc(Nc2nccc(NCCNC(=O)Nc3ccccc3F)n2)cc1 [GSK1379901] sits at 5% or higher. rule not met

Assess whether reported %Inh for COc1cc2nccc(Nc3ccc(NC(=O)c4ccc(C)cc4)c(O)c3)c2cc1OC.Cl [GW440132] sits at 5% or higher. rule not met

Assess whether reported %Inh for O=c1cc(N2CCOCC2)nc2n(Cc3cccc(Cl)c3Cl)ccn12 [GSK2286295] sits at 5% or higher. rule not met

Assess whether reported %Inh for COc1cc(Nc2nccc(N3CCC(NC(=O)Nc4cc(C)ccc4C)C3)n2)cc(OC)c1OC (stereo not drawn) [GSK1379762] sits at 5% or higher. rule met

Assess whether reported %Inh for Cc1cccc(-c2nc(-c3ccc(S(C)(=O)=O)cc3)sc2-c2ccnc(NCCc3ccccc3)c2)c1 sits at 5% or higher. rule met

Assess whether reported %Inh for CC(C)(C)c1ccc(C(=O)Nc2cn3cc(-c4cccnc4)ccc3n2)cc1 sits at 5% or higher. rule not met

Assess whether reported %Inh for Nc1nc(-c2nccs2)c(-c2ccnc3ccccc23)s1 [GW693542] sits at 5% or higher. rule met

Assess whether reported %Inh for O=C(Nc1ccc2c(c1)OCO2)NC1CCN(c2ccnc(Nc3ccc(F)cc3)n2)C1 (stereo not drawn) [GSK1379724] sits at 5% or higher. rule met

Assess whether reported %Inh for O=C(Nc1n[nH]c2nc(-c3nccs3)c(Br)cc12)C1CCCC1 [SB-742609] sits at 5% or higher. rule met

Assess whether reported %Inh for Cc1c(Cn2ccn3c(=O)cc(N4CCOCC4)nc23)cccc1C(F)(F)F [GSK2289044] sits at 5% or higher. rule not met

Assess whether reported %Inh for Cl.NC(=O)c1cccc(Nc2nccc(Nc3ccc(Oc4cccc(Cl)c4)c(Cl)c3)n2)c1 [GW659008] sits at 5% or higher. rule not met
